# Test system: K-562 leukemia
# assay_explanation: NCI tumour cell line growth inhibition, 48 h
metric: TGI (µM)
Give the quantity in µM, number only.

Record excerpt, results attached:
- CC(C)(C)c1cc(C(=O)/C=C/c2ccn[nH]2)cc(C(C)(C)C)c1O: 10.3
- C/C=C/[C@H]1O[C@@](O)([C@@H](C)[C@H](O)[C@H](C)[C@H]2OC(=O)/C(OC)=C/C(C)=C/[C@@H](C)[C@@H](O)[C@@H](CC)[C@@H](O)[C@H](C)C/C(C)=C/C=C/[C@@H]2OC)C[C@H](OC2CC(O)C(OC(N)=O)C(C)O2)[C@@H]1C (some centres not stated): 0.772

Let us examine a further case.
Missing value: TGI, K-562 leukemia, entry `O=C(N/C(=C\c1cc(Cl)ccc1Cl)c1nc2ccc(Cl)cc2[nH]1)c1ccccc1` . Fill in?
41.1

###

# System: M14 melanoma
# assay_explanation: NCI tumour cell line growth inhibition, 48 h
Entries and their TGI values follow.
Express it in µM; write the number only.

Example entries begin here.
* CCCCCCCCCCCCCP(=O)(NCC(N)=O)OCC (stereo unspecified) | 30.6
* COc1cc(/C=C/[N+](=O)[O-])cc(OC)c1OC | 4.31
* CCn1c2ccc(O)c(C(=O)OC)c2c2cc3ccccc3c(O)c21 | 47.5
* CC(C)C(C/C=C1/CC(CO)(COC(=O)C2CCCCC2)OC1=O)C(C)C (stereo unspecified) | 38.8
* COc1cccc(C2C(C#N)=C(N)Oc3c2ccc2ccccc32)c1 (stereo unspecified) | 13.3
* CC(=O)O.CC(=O)O.CC(=O)O.CC(=O)O.[Rh].[Rh] | 82.5

Please examine the following record next.
Look at this molecule and give its reported TGI. `O=C(N/C(=C\c1cc(Cl)ccc1Cl)c1nc2ccc(Cl)cc2[nH]1)c1ccccc1`
31.1

###

# System: NCI-H226 lung
# assay_explanation: NCI tumour cell line growth inhibition, 48 h
Below, each entry is listed alongside its reported TGI.

// worked examples, TGI included
- COc1cc2c(c(OC)c1OC)-c1c(cc3c(c1OC)OCO3)CC(C)C(C)(O)C2OC(=O)c1ccccc1 (configuration not stated): > 100 µM
- CC1(C)CC2=C(Sc3ccccc3N2)C(=O)C1C(=O)C(=O)Nc1cc(Cl)ccc1Cl (configuration not stated): > 100 µM
- CC(C)(C)OC(=O)NCC(=O)NC1C/C(=N\O)c2sccc21 (configuration not stated): > 100 µM
- CCC[CH2][Sn]([CH2]CCC)([O]C(=O)/C=C/c1ccccc1F)[O]C(=O)/C=C/c1ccccc1F: 2.04 µM
- Oc1ccc(Cl)cc1C1=N/C(=N\C/N=C2\N=C(c3cc(Cl)ccc3O)CC(c3ccccc3)N2)NC(c2ccccc2)C1 (configuration not stated): > 100 µM
- COc1ccc(Cc2nc3ccccc3s2)cc1OC: 45.7 µM
- Cc1ccc(N=C2SC(c3ccc(C)cc3)(c3ccc(C)cc3)c3ccccc32)cc1: > 100 µM
- COc1ccc2c(c1)C(=O)c1c-2c(N2CCNCC2)nc2ccccc12: 28.9 µM

For NCI-H226 lung, provide TGI of `CC(=O)[CH-]C(=O)Nc1ccccc1.CC(=O)[CH-]C(=O)Nc1ccccc1.CC[O-].CC[O-].[Ti+4]` please.
> 100 µM

Missing value: TGI, NCI-H226 lung, entry COc1cccc2c1[C@H]1CO[C@H]3C4C[C@H](C(=O)O)C([C@@H](C2)N13)N4C (some centres not stated) . Fill in?
5.59 µM

Return TGI measured with NCI-H226 lung given this compound: `COC(=O)/C(C#N)=C1\CCc2ccccc21`
> 100 µM

Provide value of TGI for this record tested with NCI-H226 lung: `NS(=O)(=O)c1cccc(-c2ccc3c(NC(=O)C4CC4)n[nH]c3c2)c1`
> 25 µM
